Here we gather IC50 data for Adenosine receptor A2a (Homo sapiens, UniProt P29274) reported by several publications.

Guide cases for IC50, answers given:
Cc1ccc(-c2nc(NC(=O)C3CC3)cn3cc(CF)nc23)o1 = < 10 nM
Cc1c(C#N)cccc1-c1nc2[nH]ccc(=O)c2cc1-c1ccc2ncccc2c1 = 179 nM
Cc1ccc(-c2nc(NC(=O)C3CC3)cn3cc(C(=O)O)nc23)o1 = > 1000 nM
Cc1ccc(-c2nc(NC(=O)C3CC3)cc3nc(C4CNC4)nn23)o1 = 10 to 100 nM
Cc1nc2c(Cl)c(N)nc(-c3ccc(Cl)cc3)n2n1 = 10 to 100 nM
CC(=O)Nc1cc2nc(CF)nn2c(-c2ccco2)n1 = < 10 nM

Q: So what IC50 did `C[C@H](Nc1nc(C(=O)N2CCCC2)c2sc(N)nc2n1)c1cccnc1` get with Adenosine receptor A2a (Homo sapiens, UniProt P29274)?
Result: > 1000 nM

Q: Item: `CC(=O)Nc1cc2nc(C)nn2c(-c2ccc(Br)o2)n1`
Result: < 10 nM

Q: Item: `Cc1ccc(-c2nc(NC(=O)C3CC3)cn3c(C)cnc23)o1`
Result: 10 to 100 nM

Q: Item: `CNC(=O)Nc1cc2nc(C)nn2c(-c2ccco2)n1`
Result: < 10 nM

Q: Item: `Cc1nc2c(-c3ccco3)nc(NC(=O)C3CC3)cn2n1`
Result: < 10 nM

Q: Item: `Cc1nc2cc(NC(=O)NC(C)C)nc(-c3ccco3)n2n1`
Result: < 10 nM
